# credit: patent US20230265151A1

- measurement-target: hGLP-1R (Homo sapiens, UniProt P43220)
- run-description: cell-based or functional assay
*1 amine or outer side, *2 acyl side, *3 side chain or, on linkers, in order; H or OH if unused. Where no end group is shown, it is not given here. Side-chain parts run from the residue outwards. [ ]: non-standard residue; d: D form. The star is where a group is joined. Decanoyl(10-(4-HOOC-PhO)) = O=C(O)c1ccc(OCCCCCCCCCC(=O)*)cc1; αMePhe(2-F) = C[C@](N)(Cc1ccccc1F)C(=O)O; γGlu = O=C(O)[C@H](CCC(=O)[*:2])N[*:1]; αMeY = C[C@](N)(Cc1ccc(O)cc1)C(=O)O; αMeL = CC(C)C[C@](C)(N)C(=O)O; Orn = NCCC[C@H](N)C(=O)O; AEEA = NCCOCCOCC(=O)O; Aib = CC(C)(N)C(=O)O
The following binders are listed with their measured cAMP Emax values.
experimental-readout: cAMP Emax (%)

[[record]]
binder = "Y[Aib]EGT[αMePhe(2-F)]TSDV[Aib]I[αMeL]LD[Orn]K([AEEA-AEEA-γGlu-Decanoyl(10-(4-HOOC-PhO))])AQ[Aib]EFI[dE][αMeY]LIEGGPSSGAPPPSK([AEEA-AEEA-γGlu-Decanoyl(10-(4-HOOC-PhO))])-NH2 [Example 380]"
reported = 96.2

[[record]]
binder = "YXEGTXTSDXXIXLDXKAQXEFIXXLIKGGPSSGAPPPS (Y-Aib-EGT-αMeF(2F)-TSD-4Pal-Aib-I-αMeL-LD-Orn-K((2-[2-(2-Amino-ethoxy)-ethoxy]-acetyl)-(γ-Glu)-CO-(CH2)12-CO2H)AQ-Aib-EFI-(D-Glu)-αMeY-LIK((2-[2-(2-Amino-ethoxy)-ethoxy]-acetyl)-(γ-Glu)-CO-(CH2)12-CO2H)GGPSSGAPPPS-NH2) [Example 337]"
reported = 107

